System: ANGPTL3 gene
Assay: Example 4: serum triglycerides in mice
Type: in vivo
Settings: Day 8, 1.0 mg/kg single subcutaneous dose on day 1, female C57bl/6 mice
In the oligonucleotide strings, read from the 5' end, every base follows the letter of its sugar. An asterisk marks phosphorothioate; unmarked linkages are phosphodiester. Other units and linkages are bracketed, terminal groups are in braces. A string of capitals states the bases alone. {NAG37} = tridentate N-acetyl-galactosamine targeting ligand, structure (NAG37)s; [invAb] = inverted abasic unit; m = 2'-O-methyl; f = 2'-fluoro
Avg TG (Average Triglycerides Normalized to Pre-Treatment and Control) values by entry
Measure: Avg TG (Average Triglycerides Normalized to Pre-Treatment and Control)

[[record]]
substance = "AD05488: RNAi agent duplex: antisense AM07235-AS, sense AM07234-SS (antisense mU*fA*mC*fUmGfAmUfCmAfAmAfUmAfUmGfUmUfGmAfG*mC; sense {NAG37}*[invAb]*mGmCmUmCmAmAmCmAfUfAfUmUmUmGmAmUmCmAmGmUmA*[invAb])"
target_or_test_system = "ANGPTL3 gene"
measurement = 0.624

[[record]]
substance = "AD05487: RNAi agent duplex: antisense AM07233-AS, sense AM07232-SS (antisense mU*fA*mC*fUmGfAmUfCmAfAmAfUmAfUmGfUmUfGmAfG*mU; sense {NAG37}*[invAb]*mAmCmUmCmAmAmCmAfUfAfUmUmUmGmAmUmCmAmGmUmA*[invAb])"
target_or_test_system = "ANGPTL3 gene"
measurement = 0.776

[[record]]
substance = "AD05308: RNAi agent duplex: antisense AM07003-AS, sense AM07002-SS (chain 1 mU*fG*mU*fUmGfAmAfUmUfAmAfUmGfUmCfCmAfUmGfG*mA; chain 2 {NAG37}*[invAb]*mUmCmCmAmUmGmGmAfCfAfUmUmAmAmUmUmCmAmAmCmA*[invAb])"
target_or_test_system = "ANGPTL3 gene"
measurement = 0.749

[[record]]
substance = "AD05418: RNAi agent duplex: antisense AM07159-AS, sense AM07158-SS (antisense mU*fU*mU*fGmAfAmUfUmAfAmUfGmUfCmCfAmUfGmGfG*mU; sense {NAG37}*[invAb]*mAmCmCmCmAmUmGmGfAfCfAmUmUmAmAmUmUmCmAmAmA*[invAb])"
target_or_test_system = "ANGPTL3 gene"
measurement = 0.858


---

Test system: ANGPTL3 gene
Assay: Example 4: serum HDL in mice
Type: in vivo, C57bl/6 mice
Conditions: Day 15, 1.0 mg/kg single SC injection on day 1, n=3
In the oligonucleotide strings, read from the 5' end, every base follows the letter of its sugar. An asterisk marks phosphorothioate; unmarked linkages are phosphodiester. Other units and linkages are bracketed, terminal groups are in braces. A string of capitals states the bases alone. {NAG37} = tridentate N-acetyl-galactosamine targeting ligand, structure (NAG37)s; [invAb] = inverted abasic unit; m = 2'-O-methyl; f = 2'-fluoro
Measure: Avg HDL, normalized to pre-treatment and control

[[record]]
substance = "AD05308: RNAi agent duplex: antisense AM07003-AS, sense AM07002-SS (chain 1 mU*fG*mU*fUmGfAmAfUmUfAmAfUmGfUmCfCmAfUmGfG*mA; chain 2 {NAG37}*[invAb]*mUmCmCmAmUmGmGmAfCfAfUmUmAmAmUmUmCmAmAmCmA*[invAb])"
measurement = 0.801

[[record]]
substance = "AD05488: RNAi agent duplex: antisense AM07235-AS, sense AM07234-SS (antisense mU*fA*mC*fUmGfAmUfCmAfAmAfUmAfUmGfUmUfGmAfG*mC; sense {NAG37}*[invAb]*mGmCmUmCmAmAmCmAfUfAfUmUmUmGmAmUmCmAmGmUmA*[invAb])"
measurement = 0.644

[[record]]
substance = "AD05418: RNAi agent duplex: antisense AM07159-AS, sense AM07158-SS (antisense mU*fU*mU*fGmAfAmUfUmAfAmUfGmUfCmCfAmUfGmGfG*mU; sense {NAG37}*[invAb]*mAmCmCmCmAmUmGmGfAfCfAmUmUmAmAmUmUmCmAmAmA*[invAb])"
measurement = 0.730

[[record]]
substance = "AD05487: RNAi agent duplex: antisense AM07233-AS, sense AM07232-SS (antisense mU*fA*mC*fUmGfAmUfCmAfAmAfUmAfUmGfUmUfGmAfG*mU; sense {NAG37}*[invAb]*mAmCmUmCmAmAmCmAfUfAfUmUmUmGmAmUmCmAmGmUmA*[invAb])"
measurement = 0.918

